Catalogue of IC50 values
Target: CyclinB1/CDK1 (Homo sapiens, UniProt P14635)
Construct: purchased Eurofins, discovery 14-450
Assay: Fluorescence Polarization (FP) competitive binding assay, Cyclin B1/Cdk1;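 note: fluorescence polarization read after equilibration at room temperature, with IC50 taken from serially diluted dose-response curves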
Conditions: read-out: Cyclin B FP IC50; 10 nM Cyclin B1/Cdk1, 2 nM FAM probe; average of 2-3 independent experiments
*1 amine or outer side, *2 acyl side, *3 side chain or, on linkers, in order; H or OH if unused. Where a SMILES comes first, the peptide text is derived from it. Bridges are numbered along the chain shown (N, C = ends). [ ]: non-standard residue; d: D form. The star is where a group is joined. X113 = Cc1cc(-c2ccc(Cl)cc2C[C@@H](C(=O)[*:2])N(C)[*:1])n(C)n1; NMe3Pal(2-OiBu,5-Cl) = CN[C@@H](Cc1cc(Cl)cnc1OCC(C)C)C(=O)O; NMehhhLys(Me) = CN([C@@H](CCCCCCCN(C)[*:3])C(=O)[*:2])[*:1]; cBuCO(3,3-F2-1-CF3) = O=C(C1(C(F)(F)F)CC(F)(F)C1)*; Pro(trans-4-F) = O=C(O)[C@@H]1C[C@@H](F)CN1; Gly(cPr) = N[C@H](C(=O)O)C1CC1
READOUT_NAME: IC50

COMPOUND	SYSTEM_TESTED	READOUT_NAME	OBS_VALUE
CC(C)COc1ncc(Cl)cc1C[C@H]1C(=O)N(C)CCCCCCC[C@H](N(C)C(=O)[C@@H](NC(=O)[C@@H]2C[C@@H](F)CN2C(=O)C2(C(F)(F)F)CC(F)(F)C2)C2CC2)C(=O)N[C@@H](CC(C)C)C(=O)N1C [Example 228] ({cBuCO(3,3-F2-1-CF3)}-[Pro(trans-4-F)][Gly(cPr)][NMehhhLys(Me)]L[NMe3Pal(2-OiBu,5-Cl)]; lactam 3-C)	CyclinB1/CDK1 (Homo sapiens, UniProt P14635)	IC50	20 nM
Cc1cc(-c2ccc(Cl)cc2C[C@H]2C(=O)N(C)CCCCCCC[C@H](N(C)C(=O)[C@@H](NC(=O)[C@@H]3C[C@@H](F)CN3C(=O)C3(C(F)(F)F)CC(F)(F)C3)C3CC3)C(=O)N[C@@H](CC(C)C)C(=O)N2C)n(C)n1 [Example 235] ({cBuCO(3,3-F2-1-CF3)}-[Pro(trans-4-F)][Gly(cPr)][NMehhhLys(Me)]L[X113]; lactam 3-C)	CyclinB1/CDK1 (Homo sapiens, UniProt P14635)	IC50	20 nM

* * *

Catalogue of log10(GI50) values
System: OVCAR3 cells
Assay: MTT proliferation assay, OVCAR3;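 note: compound given as an 8- or 10-point series, one day after plating, with exposure covering roughly 3-4 cell doublings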
Type: cell-based
Details: 5 days compound exposure, 1:3 serial dilution starting at 10 μM
*1 amine or outer side, *2 acyl side, *3 side chain or, on linkers, in order; H or OH if unused. Where a SMILES comes first, the peptide text is derived from it. Bridges are numbered along the chain shown (N, C = ends). [ ]: non-standard residue; d: D form. The star is where a group is joined. X169 = CN([C@@H](Cc1cc(Cl)ccc1-c1ccc(-c2cnn3c2COCC3)cc1)C(=O)[*:2])[*:1]; X12 = CN1CCN(c2ccc(-c3ccc(F)cc3C[C@@H](C(=O)[*:2])N(C)[*:1])cc2)CC1; X100 = CC(=O)NC1CC=C(c2ccc(Cl)cc2C[C@@H](C(=O)[*:2])N(C)[*:1])CC1; X171 = CC(=O)N1CC=C(c2ncc(Cl)cc2C[C@@H](C(=O)[*:2])N(C)[*:1])CC1; X86 = CN([C@@H](Cc1cc(Cl)ccc1-c1cnn(C2CCOCC2)c1)C(=O)[*:2])[*:1]; X26 = CN([C@@H](Cc1cc(F)ccc1-c1cnn(C2CC2)c1)C(=O)[*:2])[*:1]; NMehhhLys(Me) = CN([C@@H](CCCCCCCN(C)[*:3])C(=O)[*:2])[*:1]; NMe(hhhLys) = CN([C@@H](CCCCCCCN[*:3])C(=O)[*:2])[*:1]; X28 = CN([C@@H](Cc1cc(Cl)cnc1OC1CCC1)C(=O)[*:2])[*:1]; Cyclobutanecarbonyl(1-CF3) = O=C(C1(C(F)(F)F)CCC1)*; cBuCO(3,3-F2-1-CF3) = O=C(C1(C(F)(F)F)CC(F)(F)C1)*; Pro(trans-4-F) = O=C(O)[C@@H]1C[C@@H](F)CN1; Gly(cPr) = N[C@H](C(=O)O)C1CC1; X129 = N#CC1(C(=O)*)CCC1
READOUT_NAME: log10(GI50) (log10 of the value in nM)

COMPOUND	READOUT_NAME	OBS_VALUE
CC(=O)N1[C@H]2CC[C@@H]1C=C(c1ccc(Cl)cc1C[C@H]1C(=O)N(C)CCCCCCC[C@H](N(C)C(=O)[C@@H](NC(=O)[C@@H]3C[C@@H](F)CN3C(=O)C3(C(F)(F)F)CC(F)(F)C3)C3CC3)C(=O)N[C@@H](CC(C)C)C(=O)N1C)C2 (single isomer, unassigned) [Example 57-P2]	log10(GI50)	1.00
CC(C)C[C@@H]1NC(=O)[C@@H](N(C)C(=O)[C@@H](NC(=O)[C@@H]2C[C@@H](F)CN2C(=O)C2(C(F)(F)F)CC(F)(F)C2)C2CC2)CCCCCCCN(C)C(=O)[C@H](Cc2cc(Cl)ccc2-c2ccc(-c3cnn4c3COCC4)cc2)N(C)C1=O [Example 378] ({cBuCO(3,3-F2-1-CF3)}-[Pro(trans-4-F)][Gly(cPr)][NMehhhLys(Me)]L[X169]; lactam 3-C)	log10(GI50)	1.30
CC(=O)N1CC=C(c2ncc(Cl)cc2C[C@H]2C(=O)NCCCCCCC[C@H](N(C)C(=O)[C@@H](NC(=O)[C@@H]3C[C@@H](F)CN3C(=O)C3(C(F)(F)F)CC(F)(F)C3)C3CC3)C(=O)N[C@@H](CC(C)C)C(=O)N2C)CC1 [Example 302] ({cBuCO(3,3-F2-1-CF3)}-[Pro(trans-4-F)][Gly(cPr)][NMe(hhhLys)]L[X171]; lactam 3-C)	log10(GI50)	2.08
CC(=O)NC1CC=C(c2ccc(Cl)cc2C[C@H]2C(=O)N(C)CCCCCCC[C@H](N(C)C(=O)[C@@H](NC(=O)[C@@H]3C[C@@H](F)CN3C(=O)C3(C(F)(F)F)CC(F)(F)C3)C3CC3)C(=O)N[C@@H](CC(C)C)C(=O)N2C)CC1 (stereo partly drawn) [Example 60] ({cBuCO(3,3-F2-1-CF3)}-[Pro(trans-4-F)][Gly(cPr)][NMehhhLys(Me)]L[X100]; lactam 3-C)	log10(GI50)	1.00
CC(C)C[C@@H]1NC(=O)[C@@H](NC(=O)[C@@H](NC(=O)[C@@H]2C[C@@H](F)CN2C(=O)C2(C(F)(F)F)CC(F)(F)C2)C2CC2)CC=CCCCCN(C)C(=O)[C@H](Cc2cc(Cl)ccc2Cl)N(C)C1=O [Example 12]	log10(GI50)	1.60
CC(C)C[C@@H]1NC(=O)[C@@H](N(C)C(=O)[C@@H](NC(=O)[C@@H]2C[C@@H](F)CN2C(=O)C2(C(F)(F)F)CC(F)(F)C2)C2CC2)CCCCCCCNC(=O)[C@H](Cc2cc(F)ccc2-c2cnn(C3CC3)c2)N(C)C1=O [Example 213] ({cBuCO(3,3-F2-1-CF3)}-[Pro(trans-4-F)][Gly(cPr)][NMe(hhhLys)]L[X26]; lactam 3-C)	log10(GI50)	1.00
CC(C)C[C@@H]1NC(=O)[C@@H](N(C)C(=O)[C@@H](NC(=O)[C@@H]2C[C@@H](F)CN2C(=O)C2(C(F)(F)F)CCC2)C2CC2)CCCCCCCN(C)C(=O)[C@H](Cc2cc(Cl)cnc2OC2CCC2)N(C)C1=O [Example 139] ({Cyclobutanecarbonyl(1-CF3)}-[Pro(trans-4-F)][Gly(cPr)][NMehhhLys(Me)]L[X28]; lactam 3-C)	log10(GI50)	2.18
CC(C)C[C@@H]1NC(=O)[C@@H](N(C)C(=O)[C@@H](NC(=O)[C@@H]2C[C@@H](F)CN2C(=O)C2(C(F)(F)F)CC(F)(F)C2)C2CC2)CCCCCCCN(C)C(=O)[C@H](Cc2cc(F)ccc2-c2ccc(N3CCN(C)CC3)cc2)N(C)C1=O [Example 353] ({cBuCO(3,3-F2-1-CF3)}-[Pro(trans-4-F)][Gly(cPr)][NMehhhLys(Me)]L[X12]; lactam 3-C)	log10(GI50)	1.00
CC(C)C[C@@H]1NC(=O)[C@@H](N(C)C(=O)[C@@H](NC(=O)[C@@H]2C[C@@H](F)CN2C(=O)C2(C#N)CCC2)C2CC2)CCCCCCCN(C)C(=O)[C@H](Cc2cc(F)ccc2-c2cnn(C3CC3)c2)N(C)C1=O [Example 122] (X129-[Pro(trans-4-F)][Gly(cPr)][NMehhhLys(Me)]L[X26]; lactam 3-C)	log10(GI50)	1.70
CC(C)C[C@@H]1NC(=O)[C@@H](N(C)C(=O)[C@@H](NC(=O)[C@@H]2C[C@@H](F)CN2C(=O)C2(C(F)(F)F)CC(F)(F)C2)C2CC2)CC=CCCCCNC(=O)[C@H](Cc2cc(Cl)ccc2C2=CCN(C(=O)C3CC3)CC2)N(C)C1=O [Example 89]	log10(GI50)	2.58
CC(C)C[C@@H]1NC(=O)[C@@H](N(C)C(=O)[C@@H](NC(=O)[C@@H]2C[C@@H](F)CN2C(=O)C2(C(F)(F)F)CCC2)C2CC2)CC=CCCCCNC(=O)[C@H](Cc2cc(F)cnc2OC2CC2)N(C)C1=O [Example 132]	log10(GI50)	2.58
CC(C)C[C@@H]1NC(=O)[C@@H](N(C)C(=O)[C@@H](NC(=O)[C@@H]2C[C@@H](F)CN2C(=O)C2(C(F)(F)F)CC(F)(F)C2)C2CC2)CCCCCCCN(C)C(=O)[C@H](Cc2cc(Cl)ccc2-c2cnn(C3CCOCC3)c2)N(C)C1=O [Example 114] ({cBuCO(3,3-F2-1-CF3)}-[Pro(trans-4-F)][Gly(cPr)][NMehhhLys(Me)]L[X86]; lactam 3-C)	log10(GI50)	1.00

Data origin: patent US20240408169A1
